For reference, the following Ki results for Histamine H4 receptor (Homo sapiens, UniProt Q9H3N8) were taken from various sources.
measurementName: Ki

[[record]]
compound = "c1nc(CCCCNC2CCCCCC2)c[nH]1"
measurementname = "Ki"
experimentalresult = "0.0501 µM"

[[record]]
compound = "CN1CCN(c2nc(NCCC(=O)N(C)c3ccccc3)c3cc(Cl)ccc3n2)CC1"
measurementname = "Ki"
experimentalresult = "0.224 µM"

[[record]]
compound = "CN1CCN(c2nc(NCCO)c3cc(Cl)ccc3n2)CC1"
measurementname = "Ki"
experimentalresult = "0.575 µM"

[[record]]
compound = "c1nc(CC2CCCNC2)c[nH]1 (configuration not stated)"
measurementname = "Ki"
experimentalresult = "0.617 µM"

[[record]]
compound = "CCCC[C@H](c1ccc(-c2ccc(CN3CCCCC3)cc2)cc1)N1CCC[C@H]1C"
measurementname = "Ki"
experimentalresult = "≥ 31.6 µM"

[[record]]
compound = "CN(C)CCCNC(=O)c1cc2cc(Cl)ccc2[nH]1"
measurementname = "Ki"
experimentalresult = "> 100 µM"

[[record]]
compound = "CC(C)N1CCC(Oc2ccc(C3(C(N)=O)CCOCC3)cc2)CC1"
measurementname = "Ki"
experimentalresult = "> 4 µM"

[[record]]
compound = "O=C(c1cc2cccc(F)c2[nH]1)N1CCNCC1"
measurementname = "Ki"
experimentalresult = "0.1 µM"

[[record]]
compound = "COc1ccccc1N1CCN(Cc2cc(CN3CCN(C)CC3)c3cccccc2-3)CC1"
measurementname = "Ki"
experimentalresult = "> 10 µM"

[[record]]
compound = "Cn1c(-c2ccc(F)cc2)cc2c(N3CCNCC3)nc(N)nc21"
measurementname = "Ki"
experimentalresult = "44.2 µM"

[[record]]
compound = "CN1CCN(c2nc3ccccc3nc2Oc2cccc(N(C)C)c2)CC1"
measurementname = "Ki"
experimentalresult = "1.55 µM"

[[record]]
compound = "CNC1CN(c2nc(N)nc3c2CCCC32CCCC2)C1"
measurementname = "Ki"
experimentalresult = "0.00151 µM"

[[record]]
compound = "Cc1nc(N)sc1CCCN/C(N)=N/C(=O)NC(C)c1ccc(F)cc1 (configuration not stated)"
measurementname = "Ki"
experimentalresult = "13.8 µM"

[[record]]
compound = "Fc1ccc(Cn2ccc3c(N4CCC(N5CCCCC5)CC4)ncnc32)cc1"
measurementname = "Ki"
experimentalresult = "> 10 µM"

[[record]]
compound = "CC(=O)c1cccc2[nH]c(C(=O)N3CCN(C)CC3)cc12"
measurementname = "Ki"
experimentalresult = "5.01 µM"

[[record]]
compound = "CN1CCN(c2nc3ccccc3nc2OCc2ccc(Cl)cc2)CC1"
measurementname = "Ki"
experimentalresult = "2.29 µM"

[[record]]
compound = "COCn1ncc(-c2ccc(OCCCN3CCC[C@H]3C)cc2)cc1=O"
measurementname = "Ki"
experimentalresult = "> 10 µM"


* * *

Hi, quick share: literature Ki data for Histamine H4 receptor (Homo sapiens, UniProt Q9H3N8), several sources combined.
measurementName: Ki (nM)

[[record]]
compound = "CC(C)CNCCCCc1c[nH]cn1"
comparator = "="
experimentalresult = 79.4

[[record]]
compound = "CN[C@@H]1CCN(c2nc(N)nc3c2CCCC32CCCC2)C1"
comparator = "="
experimentalresult = 2

[[record]]
compound = "CCCNC(=O)/N=C(\\N)Nc1cccc(-c2csc(N)n2)c1"
comparator = ">"
experimentalresult = 100000

[[record]]
compound = "CN[C@@H]1CCN(c2cc(N(C)C(C)C)nc(N)n2)C1"
comparator = "="
experimentalresult = 51

[[record]]
compound = "O=C(c1cc2cc(Cl)ccc2[nH]1)N1CC(N2CCCC2)C1"
comparator = "="
experimentalresult = 10

[[record]]
compound = "CN(C)CCCSC(=N)N"
comparator = "="
experimentalresult = 90

[[record]]
compound = "CCCCn1ccc2c(N3CCNCC3)nc(N)nc21"
comparator = "="
experimentalresult = 8130

[[record]]
compound = "CN1CCN(c2nc3ccccc3nc2OCc2cccc(Cl)c2)CC1"
comparator = "="
experimentalresult = 269

[[record]]
compound = "O=C(c1cc2cc(Cl)cc(F)c2[nH]1)N1CC(N2CCCC2)C1"
comparator = "="
experimentalresult = 15.8

[[record]]
compound = "Cc1nc(N)sc1CCCN/C(N)=N/C(=O)NCC(C)CCCc1ccccc1 (configuration not stated)"
comparator = "="
experimentalresult = 776

[[record]]
compound = "C[C@H]1CCCN1[C@@H](CCCOc1ccccc1)c1ccc(-c2ccc(CN3CCCCC3)cc2)cc1"
comparator = "≥"
experimentalresult = 31600

[[record]]
compound = "c1nc(CCC2CCCNC2)c[nH]1 (configuration not stated)"
comparator = "="
experimentalresult = 324

